Origin of the recorded values: ChEMBL document CHEMBL1155446

protocol.notes: Aqueous solubility of the compound
Format: physicochemical
experimental.setup: buffer
measured.parameter: solubility

Give the measured solubility of Cc1cc(CN2CCN(c3c(Br)cnc4nc(-c5ccc(CN6CCNCC6)cc5)[nH]c34)CC2)no1 .
870 µg/mL

Entry COc1ccc(-c2nc3c(N4CCN(Cc5cc(C)on5)CC4)c(Br)cnc3[nH]2)cc1 please
< 10 µg/mL

Entry Cc1cc(CN2CCN(c3c(Br)cnc4[nH]c(-c5ccc(OCCO)cc5)nc34)CC2)no1 please
10 µg/mL

Entry Brc1cnc2[nH]c(-c3ccc(CN4CCOCC4)cc3)nc2c1N1CCN(Cc2cccnc2)CC1 please
30 µg/mL
